Catalogue of solubility kinetic readings, one per entry.
- CONDITIONS USED: buffer; pH 7.4; 200.0 µM
REPORTED METRIC: solubility kinetic

In [3]: df
Out[3]:
                                    compound     reported_metric    assay_result
 0  CC(C(=O)OCC(=O)c1ccccc1)N1C(=O)C2C3CCC(C3)C2C1=O (configuration not stated)  solubility kinetic  > 0.0533 mg/mL
 1       COc1ccc(C(=O)NCCCNC(=O)c2ccccn2)cc1  solubility kinetic   > 0.047 mg/mL
 2         Cc1cccc(C(=O)OCC(=O)N2CCCC2=O)c1O  solubility kinetic  > 0.0416 mg/mL
 3  O=C(CCCN1C(=O)C2CC=CCC2C1=O)Nc1ccccc1F (configuration not stated)  solubility kinetic  > 0.0496 mg/mL
 4  O=C1CSC(c2cccnc2)N1CCc1ccccn1 (configuration not stated)  solubility kinetic  > 0.0428 mg/mL
 5  NS(=O)(=O)c1ccc(O)c(NC(=O)c2ccc([N+](=O)[O-])o2)c1  solubility kinetic  > 0.0491 mg/mL
 6      O=C(Nc1nc(-c2ccc(Br)cc2)cs1)c1cccnc1  solubility kinetic  < 0.0003 mg/mL
 7        CN(Cc1nc2ccccc2s1)C(=O)c1ccc(F)cc1  solubility kinetic  > 0.0451 mg/mL
 8  O=C(N/C(=C/c1ccccc1Cl)C(=O)N1CCOCC1)c1ccccc1  solubility kinetic  > 0.0556 mg/mL
 9  Cc1cc(C)c(C)c(S(=O)(=O)NC(C(=O)O)C(C)C)c1C (configuration not stated)  solubility kinetic   > 0.047 mg/mL
10  O=C(CN1CCCc2ccccc21)Nc1ccc(F)cc1[N+](=O)[O-]  solubility kinetic  < 0.0002 mg/mL
11  CCc1cc(Cl)c(OC)c(C(=O)NC[C@@H]2CCCN2CC)c1O.Cl  solubility kinetic  > 0.0566 mg/mL

* * *

- CONDITIONS USED: buffer; pH 7.4; 200.0 µM
REPORTED METRIC: solubility kinetic

>>> df
                                   compound  assay_result
0  O=C(NCc1ccccc1)c1ccc(NC(=O)C2CCCO2)cc1 (stereo unspecified)  > 48.7 µg/mL
1          O=C(CSc1nc2ncccc2[nH]1)NCc1ccco1  > 43.2 µg/mL
2  O=C(Nc1cc(Cl)ccn1)C1(c2ccccc2)CC1(Cl)Cl (stereo unspecified)   < 0.4 µg/mL
3  O=C(COC(=O)C1CC2C=CC1C2)Nc1ccccc1F (stereo unspecified)  > 43.4 µg/mL
4  O=[N+]([O-])c1ccc(Cl)c(S(=O)(=O)NCCc2ccccn2)c1  > 51.3 µg/mL
5  Cc1c(NC(=O)C(C)Oc2cccc(F)c2)c(=O)n(-c2ccccc2)n1C (stereo unspecified)  > 55.4 µg/mL

* * *

- CONDITIONS USED: buffer; pH 7.4; 200.0 µM
REPORTED METRIC: solubility kinetic

>>> df
                                   molecule  assay_result
0  CN(Cc1ccccc1)S(=O)(=O)c1ccc(Cl)c(C(=O)N2CCC(C(N)=O)CC2)c1  > 67.5 µg/mL
1       O=C(NN1C(=O)NC2(CCCCC2)C1=O)c1cccs1    > 44 µg/mL
2  O=C(NC1CCCCC1)C1CCCN1C(=O)Nc1ccccc1 (stereo unspecified)  > 47.3 µg/mL
3  CCN(CC)P(=O)(c1ccccc1)c1c(C)nc2ccccn12 (stereo unspecified)  > 49.1 µg/mL
4  Cc1ccc(S(=O)(=O)NC(=O)c2cccc(N(C)C)c2)cc1  > 47.8 µg/mL
5  COc1ccc(S(=O)(=O)N2CCC(C(=O)Oc3cccc(C)c3)CC2)cc1OC   < 0.9 µg/mL

* * *

compounds and their reported solubility kinetic
- CONDITIONS USED: buffer; pH 7.4; 200.0 µM
REPORTED METRIC: solubility kinetic

In [3]: df
Out[3]:
                                   compound  assay_result
0         O=C(COc1ncnc2sccc12)Nc1ccc(F)cc1F  > 48.2 µg/mL
1           CCc1ccccc1N(C(C)=O)c1nc(CCl)cs1  > 44.2 µg/mL
2  CC1CCCC(C)N1C(=O)COc1ccc([N+](=O)[O-])cc1Cl (stereo not drawn)    > 49 µg/mL

* * *

- CONDITIONS USED: buffer; pH 7.4; 200.0 µM
Each entry below carries its recorded solubility kinetic.
REPORTED METRIC: solubility kinetic

In [3]: df
Out[3]:
                                   molecule  assay_result
0          CC(C)n1c(SCC(=O)NC2CC2)nnc1C1CC1  > 42.1 µg/mL
1  CCc1cccc(NC(=O)C2CCCN(c3cnccn3)C2)c1 (configuration not stated)  > 46.6 µg/mL
2  O=C1CN=C(c2ccccc2)c2cc([N+](=O)[O-])ccc2N1  > 42.2 µg/mL
3  COC(=O)c1c(S(=O)(=O)N2CCOCC2)c(C)n(C)c1C  > 47.5 µg/mL
4  O=C(O)C1CC1C(=O)Nc1nc2c(Cl)cccc2s1 (configuration not stated)  > 44.5 µg/mL
5  Cn1c(C(=O)N[C@@H](C(=O)O)c2ccccc2)cc2cc(Cl)ccc21  > 51.4 µg/mL
6         Cc1ccc2oc(C(=O)Nc3nonc3C)c(C)c2c1   < 0.2 µg/mL

* * *

- CONDITIONS USED: buffer; pH 7.4; 200.0 µM
REPORTED METRIC: solubility kinetic

In [3]: df
Out[3]:
                  structure_smiles_string     reported_metric  assay_result
0    CCS(=O)(=O)Nc1cc2c3c(c1)CCN3C(=O)CC2  solubility kinetic  > 42.1 µg/mL
1  Cc1cccc(C(=O)Oc2ccccc2C(=O)N2CCOCC2)c1  solubility kinetic  > 48.8 µg/mL
2  CN1CCN(C(=O)N(c2ccccc2)c2ccccc2)CC1.Cl  solubility kinetic  > 49.8 µg/mL

* * *

- CONDITIONS USED: buffer; pH 7.4; 200.0 µM
Note to self: values exactly at 30 µg/mL are 1. So solubility kinetic at or above 30 µg/mL is 1, below is -1.

In [3]: df
Out[3]:
                                    molecule  answer_label
 0            OC(c1ccccc1)(c1ccccc1)C1CCNCC1             1
 1  CCN(CC)S(=O)(=O)c1cc(NC(=O)CSCc2c(C)noc2C)ccc1C             1
 2  O=C(O)c1ccc(Nc2cccc(F)c2)c([N+](=O)[O-])c1             1
 3             COc1ccccc1Cc1nc(-c2ccncc2)no1             1
 4      N#Cc1ccc(NC(=O)c2cc(-c3cccs3)on2)cc1            -1
 5  Fc1ccccc1C1CCN(Cc2nc(COc3ccccc3)no2)C1 (stereo not drawn)            -1
 6  CC(C)Nc1nc(SC(C)C(=O)Nc2ccccc2)nc(N(C)C)n1 (stereo not drawn)            -1
 7  Cc1ccc(CN2CC(C(=O)Nc3ccc(C)cn3)CC2=O)cc1 (stereo not drawn)             1
 8  CCOc1ncccc1C(=O)NCC(c1ccco1)N1CCCCC1 (stereo not drawn)             1
 9  OCCN(CCO)c1nc(N2CCCCC2)c2nc(N(CCO)CCO)nc(N3CCCCC3)c2n1            -1
10        Cc1nc2ccc(NC(=S)NCc3ccccc3)cc2nc1C             1
11  COc1ccc(-c2noc(CN(C)C(=O)c3ccoc3C)n2)cc1             1
12           Cc1ccc(Cl)c(OCC(=O)Nc2cccnc2)c1            -1
13            CNCCCC1c2ccccc2C=Cc2ccccc21.Cl             1
14  Cc1cc(C)nc(SC2CC(=O)N(c3ccc(C)c(C)c3)C2=O)n1 (stereo not drawn)            -1
15  O=C1Nc2ccccc2SC1c1ccccc1 (stereo not drawn)            -1
16               O=C(Nc1ccncc1)Nc1cccc(Cl)c1             1
17  CN(C)C(CNC(=O)c1ccc([N+](=O)[O-])cc1Cl)c1ccco1 (stereo not drawn)             1

* * *

- CONDITIONS USED: buffer; pH 7.4; 200.0 µM
Each entry below carries its recorded solubility kinetic.
REPORTED METRIC: solubility kinetic

                                    molecule  assay_result
 0       COc1ccc(CC(=O)Nc2cccc3ncccc23)cc1OC  > 48.4 µg/mL
 1  Cc1[nH]c2ccccc2c1C(c1ccncc1)N1CCCCC1 (centres undefined)  > 45.8 µg/mL
 2         Cc1ccc(C(=O)CCC(=O)Nc2ncccc2C)cc1  > 42.4 µg/mL
 3  O=C1c2ccccc2NC(c2cccc(O)c2)N1Cc1ccco1 (centres undefined)  > 48.1 µg/mL
 4              Fc1ccc(NC(=S)Nc2cccnc2)cc1Cl  > 42.3 µg/mL
 5       CN(C)CCn1ccc(O)c(Cc2ccc(Cl)cc2)c1=O    44.8 µg/mL
 6          COc1cc(CNCc2ccccc2)cc(Cl)c1OC.Cl    48.2 µg/mL
 7  CC1CN(C(=O)C2CC(=O)N(c3ccc(Cl)cc3)C2)CC(C)O1 (centres undefined)  > 50.5 µg/mL
 8    Cn1ccnc1SCC(=O)Nc1ccc([N+](=O)[O-])cn1    > 44 µg/mL
 9  CC(C)(C)c1csc(NC(=O)CS(=O)(=O)c2ccccc2)n1    50.6 µg/mL
10  CC(=O)c1ccccc1NC(=O)CSc1nc2ccccc2c(=O)n1CCCN1CCOCC1     1.8 µg/mL
11  O=C1C(=O)N(CCS(=O)(=O)c2ccccc2)c2ccccc21  > 47.3 µg/mL
12  CC1CCCC(NC(=O)c2ccc3c(c2)NC(=O)CS3)C1C (centres undefined)     5.3 µg/mL
13      O=C(COc1ccc2ccccc2c1)Nc1ccccc1C(=O)O  > 48.2 µg/mL
14  COc1cccc(OCC(O)CNC2CCCC2)c1.Cl (centres undefined)  > 45.3 µg/mL
15       COc1ccc(C(C)=O)cc1COC(=O)c1cccnc1SC   < 0.7 µg/mL
16    O=C(c1cc(-c2ccc3c(c2)OCO3)on1)N1CCCCC1     5.7 µg/mL
17  Cc1cccc(C(=O)O/N=C(\N)Cc2cccc3ccccc23)c1     2.3 µg/mL
18               Cc1cccc(NC(=O)CCc2ccccc2)c1      35 µg/mL
19  COCCNc1nc(N)c([N+](=O)[O-])c(N2CCCCCC2)n1     6.3 µg/mL
20              CC(C)c1ccc(NC(=S)N2CCCC2)cc1  > 37.3 µg/mL
21  COc1cc2c(cc1OC)C(c1ccccc1C)CC(=O)N2 (centres undefined)   < 0.6 µg/mL
22               O=C(COC(=O)C1CC1)NCc1ccccc1    > 35 µg/mL
23        C[N+](C)(C)CCCCCC[N+](C)(C)C.[Br-]  > 54.3 µg/mL
24  CC(C)(C)c1ccc(C(CC(=O)O)NC(=O)Cc2ccccc2)cc1 (centres undefined)    49.3 µg/mL
25  O=C1CSC(c2cccnc2)N1c1cccc(Cl)c1 (centres undefined)    43.3 µg/mL
26    Cc1cc(N2CCCC2=O)ccc1S(=O)(=O)NC1CCCCC1    29.3 µg/mL
27  CC(N=Cc1c(O)n(C2CC2)c(=S)[nH]c1=O)c1ccccc1 (centres undefined)     2.6 µg/mL
28           O=C1NC(=O)/C(=C\c2ccc(O)cc2O)S1  > 35.6 µg/mL
29            Cc1nccc(-c2sc(-c3cccs3)nc2C)n1     2.6 µg/mL
30            Cn1c(-c2ccccc2)c(C=O)c2ccccc21    19.5 µg/mL
31  CC(=O)c1ccc(OC(=O)CN2C(=O)c3ccccc3C2=O)cc1  > 48.5 µg/mL
32  Cc1nc2cccc(C(=O)Oc3ccc([N+](=O)[O-])cc3)c2o1    10.1 µg/mL
33         COc1ccc(Cn2c(=O)oc3ccc(C)cc32)cc1     1.2 µg/mL

# credit: PubChem BioAssay AID1996
